All figures here come from paper PMC12656546.

- assay overview: Toxicokinetic study of AAI after single oral administration (plasma, UPLC-QQQ-MS/MS, NCA)
- Assay type: in vivo, F344 rats
- condition details: both sexes, F344, rat, plasma, po, 10 mg/kg, low-dose (10 mg/kg oral), 22 h, individual rats M104,M105,M106,F104,F105,F106; below LLOQ set to zero
quantity: concentration at 22 h (ng/mL)
Write it as a number; the unit ng/mL goes unstated.

Q: Answer with the recorded concentration at 22 h of COc1cccc2c1cc([N+](=O)[O-])c1c(C(=O)O)cc3c(c12)OCO3 only.
Ans: 0

###

- assay overview: Toxicokinetic study of AAI after single oral administration (plasma, UPLC-QQQ-MS/MS, NCA)
- Format: in vivo, F344 rats
- condition details: both sexes, F344, rat, plasma, po, 10 mg/kg, low-dose (10 mg/kg oral), 18 h, individual rats M104,M105,M106,F104,F105,F106; below LLOQ set to zero
quantity: concentration at 18 h (ng/mL)
Unit ng/mL implied. Number only.

Q: Indicate its recorded concentration at 18 h; the compound in question is COc1cccc2c1cc([N+](=O)[O-])c1c(C(=O)O)cc3c(c12)OCO3
Ans: 0
